Experiment: chemical genetic growth profiling, strain panel (AID 1159580);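 further: tested at 20 µM; growth read once vehicle control cultures reached saturation at 30 °C; 1 = growth at the plate median or of vehicle wells; lower values mean less growth of the strain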
Conditions: S. cerevisiae deletion strains, growth OD, locus YJL166W, strain qcr8, stronger effect = lower value
The whole screen tested about 5,500 compounds, of which about 2,000 (36%) were called active. Another 18% or so got no clear call; they are omitted. The list shows a part of the results.
parameter.measured: normalized growth
I'd appreciate a reply containing only the number, no unit.

Look over these answered cases.
compound.smiles	normalized growth
CC(C)=CCc1c(O)cc2occ(-c3ccc4c(c3)OCO4)c(=O)c2c1O	0.862
CC1(C)C=Cc2c(cc3occ(-c4ccc5c(c4)OCO5)c(=O)c3c2O)O1	0.943
CN1CCN(CCCN2c3ccccc3Sc3ccc(Cl)cc32)CC1	0.809
COc1cc(OC)c2c(=O)c(-c3ccc4c(c3)OCO4)coc2c1	0.99
COc1ccc2c(=O)c(-c3cc4c(cc3OC)OCO4)coc2c1	1

As a next step, examine the compound that follows.
## Task Give the measured normalized growth for `O=c1c(-c2ccc3c(c2)OCO3)coc2cc(O)ccc12`
## Result 0.974

====

Experiment: chemical genetic growth profiling, strain panel (AID 1159580)
Conditions: S. cerevisiae deletion strains, growth OD, locus YLR027C, strain aat2, stronger effect = lower value
Out of some 5,500 compounds screened, about 2,000 (36%) were called active. About 18% were inconclusive and are not listed. Some of the results follow.
normalized growth values by entry
I'd appreciate a reply containing only the number, no unit.

compound	parameter.measured	observed.result
COc1cc(O)c(C(=O)O)c(O)c1	normalized growth	0.983
CCCCC(=O)O[C@H]1CCC2C3CCc4cc(O)ccc4C3CC[C@@]21C (stereo not given in full)	normalized growth	1.03
CC(=O)O[C@H]1CC2CCC3C(CC[C@@]4(C)C3C[C@H]([N+]3(C)CCCCC3)[C@@H]4OC(C)=O)[C@@]2(C)C[C@@H]1[N+]1(C)CCCCC1 (stereo not given in full)	normalized growth	1.02
Nc1ncnc2nc[nH]c12	normalized growth	0.997

As a next step, examine the compound that follows.
## Task Give the measured normalized growth for CC(=O)Oc1ccc2c(c1)CCC1C2CCC2(C)C1CC(OC(C)=O)C2OC(C)=O (stereo not given)
## Result 0.995

====

Test: chemical genetic growth profiling, strain panel (AID 1159580)
Conditions: S. cerevisiae deletion strains, growth OD, locus YNL233W, strain BNI4, stronger effect = lower value
The whole screen tested about 5,500 compounds, of which about 2,000 (36%) were called active. Roughly 18% stayed inconclusive and do not appear here. This is one part of the list.
parameter.measured: normalized growth
I'd appreciate a reply containing only the number, no unit.

Look over these answered cases.
molecule	normalized growth
COP(=S)(OC)SCn1nnc2ccccc2c1=O	0.975
CC(C)=CCC1=C(O)c2ccccc2C(=O)C1=O	0.964
CC1=C(C(=O)O)N2C(=O)[C@@H](NC(=O)[C@H](N)C3=CCC=CC3)C2SC1 (some centres not stated)	1.03

## Task Give the measured normalized growth for `O=c1cc(-c2ccc(O)cc2)oc2cc(O[C@@H]3O[C@H](CO)[C@@H](O)[C@H](O)[C@H]3O[C@@H]3OC[C@](O)(CO)[C@H]3O)cc(O)c12`
## Result 1.02

## Task Give the measured normalized growth for `COc1cc2ccc(=O)oc2cc1O`
## Result 1.07

====

Test: chemical genetic growth profiling, strain panel (AID 1159580)
Settings: S. cerevisiae deletion strains, growth OD, locus YLR027C, strain aat2, stronger effect = lower value
In all, about 5,500 compounds went through this assay and about 2,000 (36%) were called active. Roughly 18% stayed inconclusive and do not appear here. This is one part of the list.
parameter.measured: normalized growth
I'd appreciate a reply containing only the number, no unit.

## Task Give the measured normalized growth for `O=c1[nH]cnc2nc[nH]c12`
## Result 1.01

## Task Give the measured normalized growth for Cn1nnnc1SCC1=C(C(=O)O)N2C(=O)C(NC(=O)C(OC=O)c3ccccc3)C2SC1 (stereo unspecified)
## Result 0.992

====

normalized growth values by entry
Assay: chemical genetic growth profiling, strain panel (AID 1159580)
Conditions: S. cerevisiae deletion strains, growth OD, locus YAL013W, strain DEP1, stronger effect = lower value
The campaign covered roughly 5,500 compounds. About 2,000 (36%) were called active. Roughly 18% stayed inconclusive and do not appear here. This is one part of the list.
I'd appreciate a reply containing only the number, no unit.

Look over these answered cases.
molecule	parameter.measured	observed.result
Cc1c(-n2cccc2)cc2c(c1[N+](=O)[O-])C(C)(C)CC2(C)C	normalized growth	1.01
COc1ccccc1N=C1SCC(=O)N1Cc1ccco1	normalized growth	0.993
COC(=O)C1=CO[C@@H](O[C@@H]2O[C@H](CO)[C@@H](O)[C@H](O)[C@H]2O)[C@@H]2[C@@H](C)[C@@H](O)C[C@H]12	normalized growth	1
CC(C)(C)c1ccc(C(=O)N/N=C\c2cc(Cl)cc(Cl)c2O)cc1	normalized growth	0.909

## Task Give the measured normalized growth for O=C1OC(=O)C2C3CCC(O3)C12 (stereo unspecified)
## Result 1.03

## Task Give the measured normalized growth for `NC(=S)c1ccc2nonc2c1`
## Result 0.999

## Task Give the measured normalized growth for `N#C/C(=C\Nc1ccc2c(c1)OCCO2)S(=O)(=O)c1ccc(C(F)(F)F)cn1`
## Result 0.985

## Task Give the measured normalized growth for `CCn1cc([N+](=O)[O-])nc1C`
## Result 1

====

Test: chemical genetic growth profiling, strain panel (AID 1159580)
Conditions: S. cerevisiae deletion strains, growth OD, locus YHR082C, strain KSP1, stronger effect = lower value
The campaign covered roughly 5,500 compounds. About 2,000 (36%) were called active. Another 18% or so got no clear call; they are omitted. The list shows a part of the results.
parameter.measured: normalized growth
I'd appreciate a reply containing only the number, no unit.

Look over these answered cases.
compound.smiles	parameter.measured	observed.result
COC(=O)c1ccc(Oc2c(C(F)(F)F)oc3cc(O)ccc3c2=O)cc1	normalized growth	1.01
N#CC(C#N)=NNc1ccc(-n2ccc(C(F)(F)F)n2)cc1	normalized growth	0.271
CCCCc1ccc(N=CNO)c(C)c1	normalized growth	0.362
COc1cccc(C(=O)C(C#N)=C(SC)SC)c1	normalized growth	0.298
N#C/C(=C\c1ccc(C(F)(F)F)cc1)c1ccc(O)cc1	normalized growth	0.492

## Task Give the measured normalized growth for `FC(F)(F)c1ccc(NC(=S)Nc2ccc(C(F)(F)F)cc2Cl)c(Cl)c1`
## Result 0.926

====

Test: chemical genetic growth profiling, strain panel (AID 1159580);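 further: tested at 20 µM; growth read once vehicle control cultures reached saturation at 30 °C; 1 = growth at the plate median or of vehicle wells; lower values mean less growth of the strain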
Conditions: S. cerevisiae deletion strains, growth OD, locus YKL067W, strain YNK1
Screen size: about 5,500 compounds; about 2,000 (36%) were called active. Roughly 18% stayed inconclusive and do not appear here. Cut-off read from the data, not from the text of the source: active = normalized growth mostly below about 0.91 (no sharp cut-off); inconclusive = no clear call, values can overlap the other calls; inactive = mostly above about 0.92. The list shows a part of the results.
Write down one outcome, taken from active, inactive

compound.smiles	category
N#CC(C#N)=NNc1ccc(-n2ccc(C(F)(F)F)n2)cc1	active

Note: attention shifts to another entry.
## Task Which outcome was assigned to `N/C(=N/OC(=O)c1ccccc1Cl)c1cccc(CS(=O)(=O)c2ccc(Cl)cc2)c1` in this test?
## Result inactive

====

Assay: chemical genetic growth profiling, strain panel (AID 1159580);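 further: tested at 20 µM; growth read once vehicle control cultures reached saturation at 30 °C; 1 = growth at the plate median or of vehicle wells; lower values mean less growth of the strain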
Conditions: S. cerevisiae deletion strains, growth OD, locus YDR297W, strain sur2, stronger effect = lower value
Hit rate of the full screen: of about 5,500 compounds, about 2,000 (36%) were called active. About 18% were inconclusive and are not listed. The list shows a part of the results.
normalized growth values by entry
I'd appreciate a reply containing only the number, no unit.

Look over these answered cases.
compound	normalized growth
COc1cc2c(cc1-c1coc3c4c(c(OC)cc3c1=O)OC(C)(C)C=C4)OCO2	1.02
N#Cc1ccc2c(c1)N(CCCN1CCC(O)CC1)c1ccccc1S2	0.99
CC1(C)C=Cc2c(cc3occ(-c4ccc5c(c4)OCO5)c(=O)c3c2O)O1	0.91
O=c1[nH]c2ccccc2n1C1CCN(CCCC(c2ccc(F)cc2)c2ccc(F)cc2)CC1	0.959
CCCCC(=O)O[C@H]1CCC2C3CCc4cc(O)ccc4C3CC[C@@]21C (stereo not given in full)	1.03
O=c1[nH]c2ccccc2n1CCCN1CCC(n2c(=O)[nH]c3cc(Cl)ccc32)CC1	0.984
OCCN1CCN(CCCN2c3ccccc3Sc3ccc(Cl)cc32)CC1	0.997
O=c1n(CCCN2CCN(c3cccc(Cl)c3)CC2)nc2ccccn12	0.98
O=C(CCCN1CC=C(n2c(=O)[nH]c3ccccc32)CC1)c1ccc(F)cc1	0.984

As a next step, examine the compound that follows.
## Task Give the measured normalized growth for CC(=O)Oc1ccc2c(c1)CCC1C2CCC2(C)C1CC(OC(C)=O)C2OC(C)=O (stereo not given)
## Result 0.988

====

Assay: chemical genetic growth profiling, strain panel (AID 1159580);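 further: tested at 20 µM; growth read once vehicle control cultures reached saturation at 30 °C; 1 = growth at the plate median or of vehicle wells; lower values mean less growth of the strain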
Conditions: S. cerevisiae deletion strains, growth OD, locus YGL248W, strain PDE1
Out of some 5,500 compounds screened, about 2,000 (36%) were called active. Not shown: some 18% with an inconclusive outcome. Cut-off read from the data, not from the text of the source: active = normalized growth mostly below about 0.91 (no sharp cut-off); inconclusive = no clear call, values can overlap the other calls; inactive = mostly above about 0.92. The list shows a part of the results.
Write down one outcome, taken from active, inactive

compound	category
O=c1n(CCCN2CCN(c3cccc(Cl)c3)CC2)nc2ccccn12	inactive
CC1=C2CCC3C(CC[C@]4(C)C(=O)CCC34)[C@@]2(C)CCC1=O (some centres undefined)	inactive
CC(C)(O)CC[C@@H](O)[C@](C)(O)C1CC[C@@]2(O)C3=CC(=O)C4C[C@@H](O)[C@@H](O)C[C@]4(C)C3CC[C@]12C (some centres undefined)	inactive
c1ccc2c(c1)[nH]c1cnccc12	inactive
C[C@]12CCC3C(CC[C@H]4C[C@@H](O)CC[C@]34C)C1CCC2=O (some centres undefined)	active

## Task Which outcome was assigned to C[C@]12CCC3C(CC[C@H]4C[C@@H](Cl)CC[C@]34C)C1CCC2=O (some centres undefined) in this test?
## Result inactive

## Task Which outcome was assigned to Cn1nnnc1SCC1=C(C(=O)O)N2C(=O)C(NC(=O)C(OC=O)c3ccccc3)C2SC1 (centres undefined) in this test?
## Result inactive

## Task Which outcome was assigned to `C[C@H]1C(=O)O[C@@H]2CCN3CC=C(COC(=O)[C@](C)(O)[C@]1(C)O)[C@H]23` in this test?
## Result inactive

## Task Which outcome was assigned to CSCCC(NC=O)C(=O)NC(CC(C)C)C(=O)NC(Cc1ccccc1)C(=O)O (centres undefined) in this test?
## Result inactive

Source of measurements: PubChem BioAssay AID1159580
